test readout: pIC50
Value format note: pIC50 is -log10 of concentration (mol/L); just state the number.

q: State its pIC50 on TNKS1 (Tankyrase 1, PARP5A) (Homo sapiens): O=c1cccc(-c2ccc(Cl)cc2)o1
Sequence (O95271 whole entry): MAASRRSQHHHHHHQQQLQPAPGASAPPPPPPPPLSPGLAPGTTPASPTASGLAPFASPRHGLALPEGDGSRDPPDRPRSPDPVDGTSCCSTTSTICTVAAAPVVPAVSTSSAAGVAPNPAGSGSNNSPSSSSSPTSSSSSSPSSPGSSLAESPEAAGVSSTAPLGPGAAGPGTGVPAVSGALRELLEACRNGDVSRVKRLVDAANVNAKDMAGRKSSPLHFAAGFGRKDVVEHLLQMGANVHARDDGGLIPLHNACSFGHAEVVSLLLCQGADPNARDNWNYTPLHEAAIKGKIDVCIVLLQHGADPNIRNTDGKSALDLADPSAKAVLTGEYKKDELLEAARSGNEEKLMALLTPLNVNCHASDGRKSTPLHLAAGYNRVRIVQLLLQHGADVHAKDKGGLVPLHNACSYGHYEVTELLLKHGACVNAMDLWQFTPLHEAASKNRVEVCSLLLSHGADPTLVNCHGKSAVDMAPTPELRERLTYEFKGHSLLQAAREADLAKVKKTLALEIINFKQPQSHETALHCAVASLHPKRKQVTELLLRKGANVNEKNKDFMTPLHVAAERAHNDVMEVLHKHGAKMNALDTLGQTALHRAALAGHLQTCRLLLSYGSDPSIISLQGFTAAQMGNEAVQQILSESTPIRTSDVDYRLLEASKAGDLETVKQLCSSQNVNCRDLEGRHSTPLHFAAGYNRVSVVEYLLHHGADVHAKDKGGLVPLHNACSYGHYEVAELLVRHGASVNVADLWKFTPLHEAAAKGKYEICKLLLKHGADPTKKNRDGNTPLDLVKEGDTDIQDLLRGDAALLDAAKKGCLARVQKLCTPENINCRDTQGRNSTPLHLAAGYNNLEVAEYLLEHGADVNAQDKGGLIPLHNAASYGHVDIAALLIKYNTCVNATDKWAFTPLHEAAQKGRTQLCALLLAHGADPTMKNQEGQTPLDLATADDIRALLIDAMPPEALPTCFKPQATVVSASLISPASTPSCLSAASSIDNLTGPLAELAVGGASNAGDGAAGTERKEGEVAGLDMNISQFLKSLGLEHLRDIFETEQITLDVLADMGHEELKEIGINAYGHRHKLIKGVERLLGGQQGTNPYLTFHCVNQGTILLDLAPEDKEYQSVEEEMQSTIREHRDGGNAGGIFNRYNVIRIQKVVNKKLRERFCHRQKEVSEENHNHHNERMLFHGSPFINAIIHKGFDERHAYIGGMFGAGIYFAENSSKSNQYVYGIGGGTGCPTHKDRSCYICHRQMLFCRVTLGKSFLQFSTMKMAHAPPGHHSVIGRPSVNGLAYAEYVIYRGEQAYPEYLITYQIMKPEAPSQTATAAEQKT
a: 6.61
